Exercise: for every item that follows, state its recorded % inhibition of human Factor 7 mRNA.
test system: human Factor 7 mRNA; test: Inhibition of human Factor 7 mRNA by 2-10-2 MOE shortmers in HepB3 cells, electroporation, 1,000 nM; assay type: cell-based; settings: electroporation, 1,000 nM oligonucleotide, approximately 24 hours, relative to untreated control cells
In the oligonucleotide strings, read from the 5' end, every base follows the letter of its sugar. An asterisk marks phosphorothioate; unmarked linkages are phosphodiester. Other units and linkages are bracketed, terminal groups are in braces. A string of capitals states the bases alone. e = 2'-O-(2-methoxyethyl) (MOE); [5mC] = 5-methylcytosine; d = 2'-deoxy (DNA)
Hey, just the number and the unit after it is fine.

>>> observed_measurement("435677 (antisense eG*eT*dG*d[5mC]*dT*d[5mC]*dG*d[5mC]*d[5mC]*d[5mC]*dA*dG*e[5mC]*eA) [compound 435677]")
"60%"
>>> observed_measurement("435746 (antisense eA*eT*dT*dG*dA*d[5mC]*dA*dA*dG*dG*dG*d[5mC]*eT*eG) [compound 435746]")
"32%"
>>> observed_measurement("435811 (antisense eG*eT*dG*dG*dT*d[5mC]*dA*dA*dG*dG*dA*dT*eG*eA) [compound 435811]")
"27%"
>>> observed_measurement("435778 (antisense eG*e[5mC]*dT*dA*d[5mC]*dT*dG*dG*dG*d[5mC]*d[5mC]*dA*e[5mC]*eG) [compound 435778]")
"49%"
>>> observed_measurement("435654 (antisense eG*e[5mC]*d[5mC]*dG*dT*dT*d[5mC]*dT*d[5mC]*dG*dT*dT*e[5mC]*eA) [compound 435654]")
"71%"

Query (substance): 435816 (antisense eT*e[5mC]*d[5mC]*dA*dA*dA*dG*dG*dA*d[5mC]*dA*dA*eG*eG) [compound 435816] ; field requested: % inhibition of human Factor 7 mRNA
4%

---

Tested on: human Factor 7 mRNA
Assay: Dose-dependent antisense inhibition of human Factor 7 in HepB3 cells, transfection with lipofectin
Format: cell-based
Settings: lipofectin, HepB3 cells, 16 hours
Procedure: Cells were plated at a density of 4,000 cells per well and treated with lipofectin reagent with 3.125 nM, 6.25 nM, 12.5 nM, 25 nM, 50 nM, and 100 nM concentrations of antisense oligonucleotide, as indicated in Table 3. After a treatment period of approximately 16 hours, RNA was isolated from the cells and Factor 7 mRNA levels were measured by real-time RT-PCR, as described herein. […] Factor 7 mRNA levels were adjusted according to total RNA content as measured by RIBOGREEN®. […]
In the oligonucleotide strings, read from the 5' end, every base follows the letter of its sugar. An asterisk marks phosphorothioate; unmarked linkages are phosphodiester. Other units and linkages are bracketed, terminal groups are in braces. A string of capitals states the bases alone. e = 2'-O-(2-methoxyethyl) (MOE); [5mC] = 5-methylcytosine; d = 2'-deoxy (DNA)
Assign t to entries whose percent inhibition of Factor 7 mRNA, relative to untreated control cells meets or exceeds 20%; assign f to the rest.

>>> label_class("422217 (antisense eG*eA*eG*dT*dT*d[5mC]*dT*dG*d[5mC]*dA*dG*dG*dA*dG*d[5mC]*dG*dG*e[5mC]*e[5mC]*eT) [compound 422217]")
"f"
>>> label_class("422130 (antisense eG*e[5mC]*e[5mC]*eT*eG*dA*dG*dG*d[5mC]*d[5mC]*dA*dG*d[5mC]*dA*dG*eA*eT*e[5mC]*eA*e[5mC]) [compound 422130]")
"f"
>>> label_class("422296 (antisense e[5mC]*e[5mC]*dG*dA*dG*dT*dT*d[5mC]*dT*dG*d[5mC]*dA*dG*dG*dA*eG*e[5mC]*eG*eG*e[5mC]) [compound 422296]")
"t"
>>> label_class("422177 (antisense e[5mC]*e[5mC]*e[5mC]*dG*d[5mC]*d[5mC]*dG*dG*d[5mC]*dT*d[5mC]*dT*dG*d[5mC]*dT*d[5mC]*dA*eT*e[5mC]*e[5mC]) [compound 422177]")
"t"

Please examine the following record next.
percent inhibition of Factor 7 mRNA, relative to untreated control cells >= 20% for 422294 (antisense eG*eA*dG*dT*dT*d[5mC]*dT*dG*d[5mC]*dA*dG*dG*dA*dG*d[5mC]*eG*eG*e[5mC]*e[5mC]*eT) [compound 422294] ?
t

---

Exercise: state measured percent inhibition of Factor 7 mRNA, relative to untreated control cells for each of the substances provided.
tested on: human Factor 7 mRNA; assay: Dose-dependent antisense inhibition of human Factor 7 in HepB3 cells, transfection with electroporation; assay type: cell-based; settings: 50 μM, 16 hours (Example 8, Table 16)
In the oligonucleotide strings, read from the 5' end, every base follows the letter of its sugar. An asterisk marks phosphorothioate; unmarked linkages are phosphodiester. Other units and linkages are bracketed, terminal groups are in braces. A string of capitals states the bases alone. e = 2'-O-(2-methoxyethyl) (MOE); [5mC] = 5-methylcytosine; d = 2'-deoxy (DNA)

Provide reported percent inhibition of Factor 7 mRNA, relative to untreated control cells for each item, in the same order as listed.
1. 407939 (antisense eT*eG*e[5mC]*eA*eG*d[5mC]*d[5mC]*d[5mC]*dG*dG*d[5mC]*dA*d[5mC]*d[5mC]*d[5mC]*eA*eG*e[5mC]*eG*eA) [compound 407939]
2. 422229 (antisense eA*eT*dG*d[5mC]*dA*dT*dG*dG*dT*dG*dA*dT*dG*d[5mC]*dT*eT*e[5mC]*eT*eG*eA) [compound 422229]
3. 422086 (antisense eT*eG*e[5mC]*eA*eT*dG*dG*dT*dG*dA*dT*dG*d[5mC]*dT*dT*e[5mC]*eT*eG*eA*eA) [compound 422086]

1. 81%
2. 90%
3. 86%

---

system: human Factor 7 mRNA; test: Dose-dependent antisense inhibition of human Factor 7 in HepB3 cells, transfection with electroporation; type: cell-based; details: 6.25 μM, 16 hours (Example 7, Table 15)
In the oligonucleotide strings, read from the 5' end, every base follows the letter of its sugar. An asterisk marks phosphorothioate; unmarked linkages are phosphodiester. Other units and linkages are bracketed, terminal groups are in braces. A string of capitals states the bases alone. e = 2'-O-(2-methoxyethyl) (MOE); [5mC] = 5-methylcytosine; d = 2'-deoxy (DNA)
Classify by measured percent inhibition of Factor 7 mRNA, relative to untreated control cells: 1 if it is equal to or exceeds 20%, -1 if it is smaller.

These solved cases illustrate the format of a correct answer.
>>> label_class("422229 (antisense eA*eT*dG*d[5mC]*dA*dT*dG*dG*dT*dG*dA*dT*dG*d[5mC]*dT*eT*e[5mC]*eT*eG*eA) [compound 422229]")
1
>>> label_class("422152 (antisense eA*eT*eG*d[5mC]*dA*dT*dG*dG*dT*dG*dA*dT*dG*d[5mC]*dT*dT*d[5mC]*eT*eG*eA) [compound 422152]")
1
>>> label_class("422228 (antisense eT*eG*d[5mC]*dA*dT*dG*dG*dT*dG*dA*dT*dG*d[5mC]*dT*dT*e[5mC]*eT*eG*eA*eA) [compound 422228]")
1
>>> label_class("422130 (antisense eG*e[5mC]*e[5mC]*eT*eG*dA*dG*dG*d[5mC]*d[5mC]*dA*dG*d[5mC]*dA*dG*eA*eT*e[5mC]*eA*e[5mC]) [compound 422130]")
1
>>> label_class("422140 (antisense eG*eT*eT*e[5mC]*eT*dG*d[5mC]*dA*dG*dG*dA*dG*d[5mC]*dG*dG*e[5mC]*e[5mC]*eT*eA*eA) [compound 422140]")
1
>>> label_class("422096 (antisense eA*eG*eA*e[5mC]*eA*dA*dT*dG*dG*dT*d[5mC]*dA*dG*dG*dG*e[5mC]*eT*eG*eG*eT) [compound 422096]")
1

Could you verify whether the entry 422252 (antisense e[5mC]*eG*d[5mC]*d[5mC]*dG*dG*d[5mC]*dT*d[5mC]*dT*dG*d[5mC]*dT*d[5mC]*dA*eT*e[5mC]*e[5mC]*e[5mC]*e[5mC]) [compound 422252] shows percent inhibition of Factor 7 mRNA, relative to untreated control cells of no less than 20%?
-1

Does the substance 422295 (antisense e[5mC]*eG*dA*dG*dT*dT*d[5mC]*dT*dG*d[5mC]*dA*dG*dG*dA*dG*e[5mC]*eG*eG*e[5mC]*e[5mC]) [compound 422295] have recorded percent inhibition of Factor 7 mRNA, relative to untreated control cells that is 20% or more?
-1

Please indicate if the recorded percent inhibition of Factor 7 mRNA, relative to untreated control cells for 422215 (antisense eG*eT*eT*d[5mC]*dT*dG*d[5mC]*dA*dG*dG*dA*dG*d[5mC]*dG*dG*d[5mC]*d[5mC]*eT*eA*eA) [compound 422215] meets or exceeds 20%.
-1

Quick check, percent inhibition of Factor 7 mRNA, relative to untreated control cells >= 20%? 422296 (antisense e[5mC]*e[5mC]*dG*dA*dG*dT*dT*d[5mC]*dT*dG*d[5mC]*dA*dG*dG*dA*eG*e[5mC]*eG*eG*e[5mC]) [compound 422296]
1

Each recorded value in this set is attributed to patent US20120214862A1.
